Value source: paper PMC4336329

TARGET_UNDER_TEST: human ether-à-go-go-related gene (hERG) potassium channel (human)
PROCEDURE_SUMMARY: primary screen, population patch clamp on CHO cells stably expressing hERG; higher = less effect of the substance
Screen size: about 310,000 compounds; about 2,200 (0.71%) showed an effect of 50% or more. Effects have a minus sign here. The entries come from a sample that favours strong results as a whole.
hERG current change (%, negative = inhibition) at 1uM for assorted molecules
ASSAY_ENDPOINT: hERG current change (%, negative = inhibition) at 1uM (%)

[[record]]
molecule = "Cc1cc(Cl)ccc1NC(=O)COC(=O)c1c(C)noc1C"
result_unit = "%"
endpoint_value = 7.79

[[record]]
molecule = "O=C(c1cc([N+](=O)[O-])ccc1Cl)N1CCN(c2ccc(F)cc2)CC1"
result_unit = "%"
endpoint_value = 0.85

[[record]]
molecule = "O=C(CCS(=O)(=O)Cc1ccccc1)N1CCN(c2ccc([N+](=O)[O-])cc2)CC1"
result_unit = "%"
endpoint_value = -81

[[record]]
molecule = "Cc1ccc(-c2nn3nnnc3c3ccccc23)cc1"
result_unit = "%"
endpoint_value = 12.9

[[record]]
molecule = "O=C(N/N=C1\\CCCc2ccccc21)c1cccc(Br)c1"
result_unit = "%"
endpoint_value = 9.96

[[record]]
molecule = "COc1cccc(CCc2nnc(N)s2)c1"
result_unit = "%"
endpoint_value = 13.2

[[record]]
molecule = "Cc1ccc(C(=O)c2coc3cc([N+](=O)[O-])c(O)c([N+](=O)[O-])c23)cc1"
result_unit = "%"
endpoint_value = 7.26

[[record]]
molecule = "COc1cc(C2CC(=O)Nc3cc(C)c(C)cc32)cc(OC)c1OC (stereo not drawn)"
result_unit = "%"
endpoint_value = 14.3

[[record]]
molecule = "Cc1nc2ccccc2nc1CN1CCN(Cc2ccc(F)c(F)c2)C(CCO)C1 (stereo not drawn)"
result_unit = "%"
endpoint_value = -6.36

[[record]]
molecule = "NC(=O)C1CCN(CC(=O)Nc2ccccc2C(=O)NC2CC2)CC1"
result_unit = "%"
endpoint_value = 10.7

[[record]]
molecule = "CSC(=NC#N)N1CCN(c2ccccc2)CC1"
result_unit = "%"
endpoint_value = 6.71

[[record]]
molecule = "O=C1[C@H]2[C@@H](C(=O)N1c1cc(Cl)cc(Cl)c1)[C@]1(C(=O)Nc3ccccc31)N1CCC[C@@H]21"
result_unit = "%"
endpoint_value = 4.86

[[record]]
molecule = "O=C(NCc1ccncc1)C(=O)NCC(c1ccco1)N1CCN(c2ccccc2)CC1 (stereo not drawn)"
result_unit = "%"
endpoint_value = 3.03

[[record]]
molecule = "CCOc1ccccc1NC(=O)CSc1nnc(-c2ccco2)o1"
result_unit = "%"
endpoint_value = 8.2

[[record]]
molecule = "Cc1ccc(S(=O)(=O)N2CCN(C(=O)c3cc(S(=O)(=O)N(C)C)ccc3N3CCCC3)CC2)cc1"
result_unit = "%"
endpoint_value = 13.1


----------
Recorded hERG current change (%, negative = inhibition) at 1uM for the following compounds
TARGET_UNDER_TEST: human ether-à-go-go-related gene (hERG) potassium channel (human, UniProt Q12809)
Sequence (Q12809 whole entry, looked up): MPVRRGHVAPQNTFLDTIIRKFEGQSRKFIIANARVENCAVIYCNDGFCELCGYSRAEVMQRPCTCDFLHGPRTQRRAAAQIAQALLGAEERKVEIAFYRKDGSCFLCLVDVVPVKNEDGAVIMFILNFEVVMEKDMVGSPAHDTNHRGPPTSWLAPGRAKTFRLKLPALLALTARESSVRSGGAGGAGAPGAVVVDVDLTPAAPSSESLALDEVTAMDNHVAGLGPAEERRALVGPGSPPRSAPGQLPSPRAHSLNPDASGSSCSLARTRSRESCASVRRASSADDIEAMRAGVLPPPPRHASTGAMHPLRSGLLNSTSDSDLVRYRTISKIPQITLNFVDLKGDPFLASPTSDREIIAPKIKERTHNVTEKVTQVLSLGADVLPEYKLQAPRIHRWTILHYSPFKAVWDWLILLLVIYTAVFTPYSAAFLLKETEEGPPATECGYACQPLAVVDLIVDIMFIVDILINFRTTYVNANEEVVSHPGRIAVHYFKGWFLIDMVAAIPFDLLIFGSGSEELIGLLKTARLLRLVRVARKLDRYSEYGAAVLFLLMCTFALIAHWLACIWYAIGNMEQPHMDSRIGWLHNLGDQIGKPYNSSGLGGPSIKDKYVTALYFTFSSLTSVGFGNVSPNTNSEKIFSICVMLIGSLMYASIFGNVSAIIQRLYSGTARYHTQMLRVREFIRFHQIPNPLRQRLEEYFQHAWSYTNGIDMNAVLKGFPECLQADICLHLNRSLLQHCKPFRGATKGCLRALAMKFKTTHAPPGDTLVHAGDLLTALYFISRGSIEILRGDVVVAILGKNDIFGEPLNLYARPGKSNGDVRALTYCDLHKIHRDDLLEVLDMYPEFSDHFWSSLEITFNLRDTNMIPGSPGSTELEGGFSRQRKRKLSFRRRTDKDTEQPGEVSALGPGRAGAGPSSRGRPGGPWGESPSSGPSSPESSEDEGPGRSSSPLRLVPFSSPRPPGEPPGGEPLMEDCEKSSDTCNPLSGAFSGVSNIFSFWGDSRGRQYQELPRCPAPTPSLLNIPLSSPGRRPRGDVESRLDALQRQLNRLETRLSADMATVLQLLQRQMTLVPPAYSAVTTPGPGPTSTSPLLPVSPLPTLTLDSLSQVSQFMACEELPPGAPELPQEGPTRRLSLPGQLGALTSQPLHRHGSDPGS
PROCEDURE_SUMMARY: primary screen, population patch clamp on CHO cells stably expressing hERG; higher = less effect of the substance
Among all 310,000 compounds or so, about 2,200 (0.71%) showed an effect of 50% or more. The effect is printed as a negative number. Shown is part of a subset that was picked to be rich in strong results.
ASSAY_ENDPOINT: hERG current change (%, negative = inhibition) at 1uM (%)

[[record]]
compound = "O=C(c1ccc(Cl)cc1)N1CCN(CCOc2ccccc2)CC1"
target_under_test = "human ether-à-go-go-related gene (hERG) potassium channel (human, UniProt Q12809)"
result_unit = "%"
endpoint_value = -12.4

[[record]]
compound = "O=C(Oc1ccc(C(=S)N2CCOCC2)cc1)c1ccccc1[N+](=O)[O-]"
target_under_test = "human ether-à-go-go-related gene (hERG) potassium channel (human, UniProt Q12809)"
result_unit = "%"
endpoint_value = 21.2

[[record]]
compound = "Cc1ccc(S(=O)(=O)NCC2CCC(C(=O)NCCCN3CCCC3=O)CC2)cc1 (stereo not shown)"
target_under_test = "human ether-à-go-go-related gene (hERG) potassium channel (human, UniProt Q12809)"
result_unit = "%"
endpoint_value = 11.2

[[record]]
compound = "O=C(Oc1ccc(C(=S)N2CCOCC2)cc1)c1ccccc1"
target_under_test = "human ether-à-go-go-related gene (hERG) potassium channel (human, UniProt Q12809)"
result_unit = "%"
endpoint_value = 28.6

[[record]]
compound = "COc1ccc(C(=O)C2CCCN(Cc3ccc(C)s3)C2)c(OC)c1 (stereo not shown)"
target_under_test = "human ether-à-go-go-related gene (hERG) potassium channel (human, UniProt Q12809)"
result_unit = "%"
endpoint_value = -2.87

[[record]]
compound = "Cc1ccc(S(=O)(=O)c2cc3c(=O)n4cccc(C)c4nc3n(CC3CCCO3)c2=N)cc1C (stereo not shown)"
target_under_test = "human ether-à-go-go-related gene (hERG) potassium channel (human, UniProt Q12809)"
result_unit = "%"
endpoint_value = 12.9

[[record]]
compound = "O=C(CCCC(=O)N1CCN(c2ccc([N+](=O)[O-])cc2)CC1)c1ccccc1"
target_under_test = "human ether-à-go-go-related gene (hERG) potassium channel (human, UniProt Q12809)"
result_unit = "%"
endpoint_value = -66

[[record]]
compound = "CCc1nnc(NC(=O)c2ccc(-c3ccccc3F)o2)s1"
target_under_test = "human ether-à-go-go-related gene (hERG) potassium channel (human, UniProt Q12809)"
result_unit = "%"
endpoint_value = 11.7

[[record]]
compound = "Cc1ccc2nc3c(cc(C(=O)NCCc4ccccc4)c(=N)n3CC3CCCO3)c(=O)n2c1 (stereo not shown)"
target_under_test = "human ether-à-go-go-related gene (hERG) potassium channel (human, UniProt Q12809)"
result_unit = "%"
endpoint_value = -84

[[record]]
compound = "COc1ccc(C(=O)C2CCCN(C3CSCCSC3)C2)c(OC)c1 (stereo not shown)"
target_under_test = "human ether-à-go-go-related gene (hERG) potassium channel (human, UniProt Q12809)"
result_unit = "%"
endpoint_value = -4.62

[[record]]
compound = "O=C(Nc1ccc(Cl)c(Cl)c1)N(CCCN1CCOCC1)Cc1cccs1"
target_under_test = "human ether-à-go-go-related gene (hERG) potassium channel (human, UniProt Q12809)"
result_unit = "%"
endpoint_value = -41.8

[[record]]
compound = "COc1ccc(C(=O)C2CCCN(Cc3c[nH]c4ccccc34)C2)c(OC)c1 (stereo not shown)"
target_under_test = "human ether-à-go-go-related gene (hERG) potassium channel (human, UniProt Q12809)"
result_unit = "%"
endpoint_value = -58.8

[[record]]
compound = "CCc1ccc2[nH]c(=O)c(CN(CCN(CC)CC)C(=O)Nc3ccccc3OC)cc2c1"
target_under_test = "human ether-à-go-go-related gene (hERG) potassium channel (human, UniProt Q12809)"
result_unit = "%"
endpoint_value = -50.7

[[record]]
compound = "N#C/C(=C/c1ccc(N2CCCCCC2)o1)c1ccc(F)cc1"
target_under_test = "human ether-à-go-go-related gene (hERG) potassium channel (human, UniProt Q12809)"
result_unit = "%"
endpoint_value = 16.2

[[record]]
compound = "COc1cc(CNCCc2ccccc2)ccc1OCc1ccc(Cl)nc1.Cl"
target_under_test = "human ether-à-go-go-related gene (hERG) potassium channel (human, UniProt Q12809)"
result_unit = "%"
endpoint_value = -0.117

[[record]]
compound = "O=[N+]([O-])c1ccc(N2CCCCC2)cn1"
target_under_test = "human ether-à-go-go-related gene (hERG) potassium channel (human, UniProt Q12809)"
result_unit = "%"
endpoint_value = 13.9

[[record]]
compound = "CC1CC(=O)Nc2ccccc2N1C(=O)Nc1ccc(F)cc1 (stereo not shown)"
target_under_test = "human ether-à-go-go-related gene (hERG) potassium channel (human, UniProt Q12809)"
result_unit = "%"
endpoint_value = 9.77

[[record]]
compound = "O=C(CN1CCN(CC(=O)Nc2ccccn2)CC1)Nc1ccccn1"
target_under_test = "human ether-à-go-go-related gene (hERG) potassium channel (human, UniProt Q12809)"
result_unit = "%"
endpoint_value = -9.95

[[record]]
compound = "CCOC(=O)/C(N=Nc1sc(C(=O)OC)c(C)c1C(=O)OCC)=C(\\O)CCl"
target_under_test = "human ether-à-go-go-related gene (hERG) potassium channel (human, UniProt Q12809)"
result_unit = "%"
endpoint_value = 14.4

[[record]]
compound = "CN(C)C(=O)Oc1ccc(OC(=O)c2ccccc2)cc1"
target_under_test = "human ether-à-go-go-related gene (hERG) potassium channel (human, UniProt Q12809)"
result_unit = "%"
endpoint_value = 10.4

[[record]]
compound = "O=C(Cc1ccc([N+](=O)[O-])cc1)N1CCN(c2ccc([N+](=O)[O-])cc2)CC1"
target_under_test = "human ether-à-go-go-related gene (hERG) potassium channel (human, UniProt Q12809)"
result_unit = "%"
endpoint_value = -82.5

[[record]]
compound = "O=C(CNC(=S)N(CCCN1CCOCC1)Cc1cccs1)NCCCN1CCOCC1"
target_under_test = "human ether-à-go-go-related gene (hERG) potassium channel (human, UniProt Q12809)"
result_unit = "%"
endpoint_value = 16.3

[[record]]
compound = "O=C(CN1CCN(c2ccc([N+](=O)[O-])cc2)CC1)Nc1nccs1"
target_under_test = "human ether-à-go-go-related gene (hERG) potassium channel (human, UniProt Q12809)"
result_unit = "%"
endpoint_value = -29.3

[[record]]
compound = "Cc1ccc(CC(=O)N2CCN(c3ccc([N+](=O)[O-])cc3)CC2)cc1"
target_under_test = "human ether-à-go-go-related gene (hERG) potassium channel (human, UniProt Q12809)"
result_unit = "%"
endpoint_value = -30.4

[[record]]
compound = "Cc1ccc2c(Cl)c(C(=O)NC3CC3)sc2c1"
target_under_test = "human ether-à-go-go-related gene (hERG) potassium channel (human, UniProt Q12809)"
result_unit = "%"
endpoint_value = 9.87

[[record]]
compound = "Cc1cccc(C(=O)O/N=C(\\N)CS(=O)(=O)c2ccccc2)c1"
target_under_test = "human ether-à-go-go-related gene (hERG) potassium channel (human, UniProt Q12809)"
result_unit = "%"
endpoint_value = 5.74

[[record]]
compound = "COc1ccc(OCCN2CCN(C(=O)c3ccc(OC(F)F)c(OC)c3)CC2)cc1"
target_under_test = "human ether-à-go-go-related gene (hERG) potassium channel (human, UniProt Q12809)"
result_unit = "%"
endpoint_value = -62.6

[[record]]
compound = "COc1ccc(CNC(=O)c2cc3c(=O)n4cccc(C)c4nc3n(CC3CCCO3)c2=N)cc1 (stereo not shown)"
target_under_test = "human ether-à-go-go-related gene (hERG) potassium channel (human, UniProt Q12809)"
result_unit = "%"
endpoint_value = -83.8

[[record]]
compound = "CCN(CC)CCN(Cc1cc2cc(C)ccc2[nH]c1=O)C(=O)Nc1ccccc1OC"
target_under_test = "human ether-à-go-go-related gene (hERG) potassium channel (human, UniProt Q12809)"
result_unit = "%"
endpoint_value = -22.2

[[record]]
compound = "CCC(CC)C(=O)Nc1ccc(C)c(O)c1"
target_under_test = "human ether-à-go-go-related gene (hERG) potassium channel (human, UniProt Q12809)"
result_unit = "%"
endpoint_value = 5.34

[[record]]
compound = "COc1ccc(CNCCc2ccc(Cl)cc2)cc1OCc1ccccc1"
target_under_test = "human ether-à-go-go-related gene (hERG) potassium channel (human, UniProt Q12809)"
result_unit = "%"
endpoint_value = -52.2

